This collection of values is drawn from patent US20130116241A1.

Give pIC50 for every item shown.
Molecular target: human PDE10A (UniProt Q9Y233)
Sequence (Q9Y233 290-1055 limits assumed): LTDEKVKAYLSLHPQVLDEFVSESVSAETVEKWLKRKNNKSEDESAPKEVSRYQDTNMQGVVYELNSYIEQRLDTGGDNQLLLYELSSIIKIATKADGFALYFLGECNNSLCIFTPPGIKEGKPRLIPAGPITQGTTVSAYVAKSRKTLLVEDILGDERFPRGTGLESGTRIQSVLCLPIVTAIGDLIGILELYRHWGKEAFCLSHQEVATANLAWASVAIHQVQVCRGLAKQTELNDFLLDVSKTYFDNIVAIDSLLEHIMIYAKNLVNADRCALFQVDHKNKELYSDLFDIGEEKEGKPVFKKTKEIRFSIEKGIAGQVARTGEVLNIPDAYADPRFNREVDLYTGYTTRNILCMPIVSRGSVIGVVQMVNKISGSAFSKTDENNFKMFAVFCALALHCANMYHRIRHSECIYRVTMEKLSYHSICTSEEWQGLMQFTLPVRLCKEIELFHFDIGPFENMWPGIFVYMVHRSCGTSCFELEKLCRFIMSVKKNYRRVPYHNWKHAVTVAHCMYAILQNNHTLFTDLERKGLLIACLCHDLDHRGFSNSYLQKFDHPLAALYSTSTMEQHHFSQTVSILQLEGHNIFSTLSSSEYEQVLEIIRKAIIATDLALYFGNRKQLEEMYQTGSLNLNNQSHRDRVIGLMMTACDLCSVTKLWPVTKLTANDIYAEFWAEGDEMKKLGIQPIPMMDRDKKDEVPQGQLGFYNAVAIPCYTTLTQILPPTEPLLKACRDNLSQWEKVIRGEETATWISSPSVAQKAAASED
Test: Measurement of PDE activity (recombinant enzyme, HTRF cAMP kit)
Format: biochemical
Conditions: Table 1, substrate 20 nM for PDE10, 60 minutes at 29 C, read-out: IC50
pIC50: −log10 of the molar value. Counter-ions that a name gives are not always drawn.

What pIC50 value was documented for this molecule, O=c1c2c(-c3ccncc3)csc2ccn1C1CC1c1ccc2sccc2n1 (stereo not drawn) [compound 292] ?
> 7.00

State the recorded pIC50 for this entry: O=c1c2c(-c3ccc(F)c(F)c3)cccc2cnn1CCc1ccc2ccccc2n1 [Example 149]
6.30 to 6.70

Fill in: pIC50 of O=c1c2cccc(N3CCS(=O)(=O)CC3)c2cnn1CCc1ccc2ccccc2n1 [Example 195] is ___
6.70 to 7.00

Reported pIC50, molecule COc1ccc(-c2cccc3cnn(CCc4ccc5ccccc5n4)c(=O)c23)cc1F [Example 154] : ____
6.30 to 6.70

Which pIC50 is reported for this molecule? O=c1c2c(N3CC4CCOC4C3)cccc2cnn1CCc1cn2ccccc2n1 (stereo not drawn) [compound 374, hydrochloride]
6.30 to 6.70

Item O=c1c2c(-c3ccc(F)cc3)csc2cnn1CCc1ccc2ccccc2n1 [Example 12] has what recorded pIC50?
> 7.00

Quick check: pIC50 of O=c1c2c(-c3ccncc3)csc2ccn1CCc1ccc2cc(F)ccc2n1 [compound 309] ?
> 7.00

Quick one: pIC50 for O=c1c2c(N3CCOCC3)cccc2cnn1CCc1cn2ccccc2n1 [Example 174] ?
> 7.00

Given the molecule O=c1c2c(C3CCOC3)cccc2cnn1CCc1cn2ccccc2n1 (stereo not drawn) [compound 337] , what is its reported pIC50?
> 7.00

###

Biological target: human PDE10A (UniProt Q9Y233)
Assay: Measurement of PDE activity (recombinant enzyme, HTRF cAMP kit)
Type: biochemical
Settings: Table 1, substrate 20 nM for PDE10, 60 minutes at 29 C, read-out: IC50
readout: IC50

Value wanted: IC50 (human PDE10A (UniProt Q9Y233)) of entry O=c1c2c(-c3ccncc3)csc2cnn1CCc1ccc2cc(F)ccc2n1 [Example 93]
< 100 nM

Checklist item: IC50 tested on human PDE10A (UniProt Q9Y233), entry O=c1c2c(N3CCC[C@H](O)C3)cccc2ccn1C1CC1c1ccc2ccccc2n1 (some centres unmarked) [Example 244] , value?
< 100 nM

Lab note: need IC50 with human PDE10A (UniProt Q9Y233) for entry COc1ccc(-c2csc3cnn(CCc4ccc5ccccc5n4)c(=O)c23)cc1 [Example 11] , please look it up.
100 to 200 nM

# get_value(readout= IC50, system= human PDE10A (UniProt Q9Y233)) for O=c1c2ccccc2c(-c2cncnc2)nn1CCc1cn2ccccc2n1 [Example 200]
< 100 nM

Form field: IC50 recorded for O=c1c2c(-c3ccncc3)cccc2ccn1CCc1ccc2ccccc2n1 [Example 223] with human PDE10A (UniProt Q9Y233) (enter value)
< 100 nM

###

Target: UniProt:Q9Y233
Experiment: Measurement of PDE activity (recombinant enzyme, HTRF cAMP kit)
Format: biochemical
Details: Table 1, substrate 20 nM for PDE10, 60 minutes at 29 C, read-out: IC50
pIC50: −log10 of the molar value. Where a name gives a salt, the structure may show the parent alone.
readout: pIC50

Using the record for O=c1c2c(-c3cccnc3)csc2ccn1C1CC1c1ccc2sccc2n1 (centres unmarked) , report its pIC50.
> 7.00

Could you tell me which pIC50 is on file for O=c1c2c(-c3cccnc3)csc2ccn1C1CC1c1ccc2ccccc2n1 (centres unmarked) ?
> 7.00

What measured pIC50 goes with O=c1c2c(N3CCC[C@H](O)C3)cccc2cnn1CCc1cn2ccccc2n1 ?
> 7.00

Can you share its pIC50? I mean this compound: O=c1c2c(-c3ccccc3Cl)csc2cnn1CCc1ccc2ccccc2n1
6.70 to 7.00

Entry O=c1c2c(-c3cccnc3)csc2cnn1CCc1ccc2ccccc2n1 : reported pIC50 = ?
> 7.00

# pIC50 lookup, item O=c1c2c(-c3cccc(F)c3F)csc2cnn1CCc1ccc2ccccc2n1
6.70 to 7.00

Query: pIC50; subject: O=c1c2c(N3CCOCC3)cccc2ccn1[C@@H]1C[C@H]1c1ccc2cc(F)ccc2n1 (relative stereo)
> 7.00

Form field: reported pIC50 of N#CCc1ccc(-c2csc3cnn(CCc4ccc5ccccc5n4)c(=O)c23)cc1
6.30 to 6.70

Please give the measured pIC50 for this compound: Cc1ccc(-c2csc3cnn(CCc4ccc5ccccc5n4)c(=O)c23)cc1
6.30 to 6.70

Param item = O=c1c2c(N3CC4CCC(C3)O4)cccc2cnn1CCc1cn2ccccc2n1 ; retrieve measured pIC50.
> 7.00

Entry under review: O=c1c2c(-c3ccncc3)csc2c(-c2ccncc2)nn1CCc1ccc2ccccc2n1 . Reported pIC50?
> 7.00

Give the measured pIC50 of O=c1c2c(-c3ccncc3)csc2cnn1CCc1nc2ccccc2[nH]1 [compound 317, hydrochloride] .
> 7.00

Would you mind telling me what pIC50 value was observed for O=c1c2c(NC3CCCNC3)cccc2cnn1CCc1cn2ccccc2n1 (centres unmarked) [compound 393, dihydrochloride] ?
> 7.00

What does the record list as pIC50 for Cc1ccc(-c2csc3cnn(CCc4ccc5ccccc5n4)c(=O)c23)c(F)c1 ?
6.30 to 6.70

Which pIC50 is reported for this compound? N#Cc1cccc(-c2cccc3cnn(CCc4ccc5ccccc5n4)c(=O)c23)c1
6.70 to 7.00

Would you mind telling me what pIC50 value was observed for O=c1c2cccc(-c3ccncc3)c2cnn1CCc1ccc2ccccc2n1 [Example 192, hydrochloride] ?
> 7.00

Fill in: pIC50 of O=c1c2cccc(-c3cncnc3)c2ccn1C1CC1c1ccc2ccccc2n1 (centres unmarked) is ___
6.70 to 7.00

###

Target: human PDE10A (UniProt Q9Y233)
Experiment: Measurement of PDE activity (recombinant enzyme, HTRF cAMP kit)
Format: biochemical
Settings: Table 1, substrate 20 nM for PDE10, 60 minutes at 29 C, read-out: IC50
pIC50: −log10 of the molar value. Structures can show the parent of a compound that is named as a salt.
readout: pIC50

Dear colleague, I am looking for the recorded pIC50 of the following compound: O=c1c2c(-c3ccc(O)cc3)csc2cnn1CCc1ccc2ccccc2n1
> 7.00

# lookup: pIC50 of O=c1c2c(N3C[C@H]4CC[C@@H](C3)O4)cccc2ccn1C1CC1c1ccc2ccccc2n1 (some centres unmarked)
> 7.00

Requested read-out: pIC50. Entry: N#CCc1ccc(-c2cccc3cnn(CCc4ccc5ccccc5n4)c(=O)c23)cc1
> 7.00

Report pIC50 for COc1ccc(F)c(-c2csc3cnn(CCc4ccc5ccccc5n4)c(=O)c23)c1 please.
6.70 to 7.00

Quick check: pIC50 of O=c1c2c(-c3ccncc3)csc2c(-c2cccnc2)nn1CCc1cn2ccccc2n1 ?
> 7.00

Please look up its pIC50: O=c1c2c(-c3ccnc(F)c3)csc2ccn1[C@@H]1C[C@H]1c1ccc2ccccc2n1 (relative stereo)
> 7.00

What does the record list as pIC50 for COc1cncc(-c2csc3cnn(CCc4ccc5ccccc5n4)c(=O)c23)c1 ?
6.70 to 7.00

# pIC50 lookup, item O=c1c2c(-c3cc(F)ccc3F)csc2cnn1CCc1ccc2ccccc2n1
6.70 to 7.00

Entry under review: O=c1c2c(-c3cc(F)ccc3F)cccc2cnn1CCc1ccc2ccccc2n1 . Reported pIC50?
6.70 to 7.00

Look at this compound and give its reported pIC50. O=c1c2c(N[C@H]3CCOC3)cccc2cnn1CCc1cn2ccccc2n1
> 7.00

Field request: pIC50 | item: O=c1c2c(NC3CCOC3)cccc2cnn1CCc1cn2ccccc2n1 (centres unmarked)
> 7.00

Quick check: pIC50 of N#Cc1cccc(-c2csc3cnn(CCc4ccc5ccccc5n4)c(=O)c23)c1 ?
> 7.00

Any idea what its pIC50 is? The compound is Cn1nccc1-c1csc2cnn(CCc3ccc4ccccc4n3)c(=O)c12
> 7.00

What value of pIC50 has been reported for the following compound? O=c1c2c(NC3CCCOC3)cccc2cnn1CCc1cn2ccccc2n1 (centres unmarked) [compound 392, hydrochloride]
> 7.00

Look at this compound and give its reported pIC50. CC(C)Cn1cc(-c2cccc3cnn(CCc4ccc5ccccc5n4)c(=O)c23)cn1
6.30 to 6.70

Which pIC50 is listed for Cc1cnc(CCn2ncc3scc(-c4ccncc4)c3c2=O)c(C)c1 ?
6.70 to 7.00

Can you look up the measured pIC50 of Cn1cnc(-c2nn(CCc3cn4ccccc4n3)c(=O)c3c(-c4ccncc4)csc23)c1 for me?
> 7.00

###

Provide the reported IC50 of each item.
Target: UniProtKB Q9Y233
Experiment: Measurement of PDE activity (recombinant enzyme, HTRF cAMP kit)
Type: biochemical
Conditions: Table 1, substrate 20 nM for PDE10, 60 minutes at 29 C, read-out: IC50
Structures can show the parent of a compound that is named as a salt.

What value of IC50 has been recorded for this entry: Cn1cc(-c2cccc3cnn(CCc4cn5ccccc5n4)c(=O)c23)cn1 [compound 359, hydrochloride]
< 100 nM

Reported IC50 for COc1cncc(-c2cccc3cnn(CCc4ccc5ccccc5n4)c(=O)c23)c1 : what is it?
< 100 nM

Name the reported IC50 value associated with the compound Cc1ccc(-c2cccc3cnn(CCc4ccc5ccccc5n4)c(=O)c23)cc1
200 to 500 nM

IC50 lookup needed for O=c1c2c(-c3ccncc3)csc2cnn1CCc1cnc2ccccc2n1 [compound 311, hydrochloride] , thanks.
100 to 200 nM
